Just for reference, ChEMBL document CHEMBL1201862 is where these values come from.

Quick list: GI50 per entry.
Tested on: SK-OV-3
Test: NCI tumour cell line growth inhibition, 48 h
The source made the active and inactive calls. Cut-off read from the data, not from the text of the source: active = GI50 up to about 1.1 µM and inactive = higher.

molecule	GI50
COC(=O)c1c(C)cccc1CC1Cc2c(C)cccc2C1=O (stereo unspecified)	20.2 µM (inactive)
Cc1ccnc2sc3ccccc3c(=O)c12	37.3 µM (inactive)
CC(C)c1[nH]nc(C(N)=O)c1/N=N/N(C)C	52.5 µM (inactive)

Give the measured GI50 of C[C@@H]1CC[C@]2(C)C3(C)CC[C@]2(OC3=O)[C@@]12CC(c1ccoc1)OC2=O (stereo partly specified) .
> 100 µM (inactive)

May I ask what GI50 has been recorded for O/N=C(\CC(O)(C(F)(F)F)C(F)(F)F)c1cccc(Cl)c1 ?
22.7 µM (inactive)

Tell me the measured GI50 of Cc1cc(C)nc(NC(=O)COc2ccc(Cl)cc2)c1 , please.
> 100 µM (inactive)

GI50 lookup needed for O=C1c2c(ccc3c2CCCC3)CC12Cc1ccc3c(c1C2=O)CCCC3 , thanks.
> 100 µM (inactive)

Which GI50 is reported for this molecule? CC(C)(C)OC(=O)N1C(C2=COc3ccccc3O2)=COc2ccccc21
29 µM (inactive)

Dear colleague, I am looking for the recorded GI50 of the following molecule: CN(C)Cc1cc(/N=N/c2ccccc2)cc(CN(C)C)c1O
> 100 µM (inactive)

May I ask what GI50 has been recorded for CC1=CC(=O)/C(=C/NC(N)=S)C(=O)O1 ?
43.2 µM (inactive)

Any idea what GI50 was measured for O=C(Cl)c1cc([N+](=O)[O-])cc([N+](=O)[O-])c1 ?
> 100 µM (inactive)
